test_method_notes: NCI Yeast Anticancer Drug Screen. Data for the mlh1 rad18 strain (AID 175)
study_conditions: S. cerevisiae mlh1 rad18 strain growth inhibition; at 50.0 µM; stronger effect = higher value
About 79,000 compounds went through this panel and 15% of them were active in at least one assay; those are over-represented in the sample as a whole.
Given measured growth inhibition, output Met if it is greater than or equal to 20% and Not met if not.

• CCOC(=O)C(CCC#N)(CCC#N)C(=O)OCC = Met
• CC(C)N(CCCC#N)C(C)C = Not met
• N#C/C(=C\c1ccc2c(c1)OCO2)c1ccccc1 = Met
• C[C@H](CCC[C@H](C)OS(=O)(=O)c1ccccc1)OS(=O)(=O)c1ccccc1 = Not met
• Nc1cc(N)ncn1 = Met
• CCOc1ccc(C(=O)O)cc1 = Met
• Cn1c2ccccc2c2nnc(NCCCCO)nc21 = Met
• O=C1Nc2ccccc2/C1=C\c1ccccc1O = Met
• OC(CCN1CCCCC1)(c1ccccc1)c1ccccc1 = Not met
• OCC1OC(n2ccc3c2ncn2ncnc32)C(O)C1O (configuration not stated) = Not met
• Cc1ccccc1CC(N)C(=O)O (configuration not stated) = Not met
• O=C(O)c1ccc([N+](=O)[O-])cc1S(=O)(=O)O = Not met
• Clc1cccc(Cl)c1CSc1nc2ccccc2n2cccc12 = Not met
• CCOC(=O)c1ccc(C(C)(C)C)cc1 = Not met
• CCOC(=O)C(COS(C)(=O)=O)(COS(C)(=O)=O)C(=O)OCC = Not met
• C[n+]1c(/C=C\C=C\N2CCCCC2)sc2ccccc21 = Met
• CCOC(=O)/C(O)=C(\C=N\C(=S)Nc1ccc(Cl)c(Cl)c1)C(=O)OCC = Met
• O=C1C=Cc2ccccc2/C1=C/c1[nH]c(=O)[nH]c1O = Not met
• O=c1cc(Cl)nc2ccccn12 = Not met
• O=S(=O)(O)c1ccc(O)c(C2CCCCC2)c1 = Met
• O=C(c1ccccc1)c1ccc(-c2ccc(O)cc2)cc1 = Not met
• CCOc1ccccc1NC(=O)CCl = Met
• O=S(=O)(OCCOS(=O)(=O)c1ccccc1)c1ccccc1 = Met
• CN1CCCN(C(c2ccccc2)c2ccc(Cl)cc2)CC1 (configuration not stated) = Not met
• O=C(NCCc1ccccc1)/C(=C\c1ccc(Cl)cc1Cl)NC(=O)c1ccccc1 = Not met
• O=C(O)CC1=CCCCC1 = Not met
• COc1ccc(-c2csc(NC(=O)Nc3nc(-c4ccc(OC)cc4)cs3)n2)cc1 = Not met

###

test_method_notes: NCI Yeast Anticancer Drug Screen. Data for the sgs1 mgt1 strain (AID 161);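 note: 0% = growth of cultures given vehicle only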
study_conditions: S. cerevisiae sgs1 mgt1 strain, at 50.0 µM, stronger effect = higher value
The panel holds about 79,000 compounds, 15% with a hit somewhere; the sample as a whole holds those more often. Active and inactive are the calls of the source. Cut-off read from the data, not from the text of the source: active = growth inhibition above about 70%; inactive = the rest.
Each entry below carries its reported growth inhibition.
measurement_label: growth inhibition

- O=C(O)CC1=CCCCC1: 0.9% (inactive)
- CNc1ccccc1C(=O)N/N=C/C=C/c1ccccc1: 31.1% (inactive)
- COC(CCCl)c1ccc(Cl)cc1 (configuration not stated): -10.8% (inactive)
- Cc1c(-c2ccc(C3CCCCC3)cc2)nc2ccc(F)cc2c1C(=O)O: 12.3% (inactive)
- Nc1ncnc(Nc2ccc(C(F)(F)F)cc2)n1: 1.35% (inactive)
- CCCCOC(=O)c1ccccc1O: -13.8% (inactive)
- CCCCNC(=O)c1ccc(OCC)cc1: 33.3% (inactive)

###

test_method_notes: NCI Yeast Anticancer Drug Screen. Data for the mec2-1 strain (AID 157)
study_conditions: S. cerevisiae mec2-1 strain, at 50.0 µM, stronger effect = higher value
About 79,000 compounds went through this panel and 15% of them were active in at least one assay; those are over-represented in the sample as a whole.
measurement_label: growth inhibition (%)

* C#CC(O)c1ccccc1 (configuration not stated) | -15.3
* Nc1cc(F)ccc1[N+](=O)[O-] | -0.1
* O=S1(=O)c2ccccc2Oc2ccccc21 | -19.4
* CSc1nc2[nH]ncc2c(=O)[nH]1 | 5.85
* Cc1cccc2ccccc12 | -15.6
* O=C1Nc2ccccc2/C1=C\c1ccccc1O | -1.75
* Cc1ccc2[nH]c3ccccc3c2c1 | 14.6
* C=C1SC(=Nc2c(C)cccc2C)N(c2nc(Cl)nc(Cl)n2)C12CCCCC2 | -8.75
* CC(=O)c1cccc(O)c1 | -8.85
* NC(=S)N/N=C/c1ccc(Cl)cc1 | 23.8
* Cc1ccc(S(=O)(=O)CCCl)cc1 | -7.35
* O=C(NCCc1ccccc1)/C(=C\c1ccc(Cl)cc1Cl)NC(=O)c1ccccc1 | -6.15
* O=S(Cc1ccccc1)/C(=C/NC(=S)Nc1cc(Cl)ccc1Cl)c1ccccc1 (configuration not stated) | 7.05
* Cc1ccc(NCN2C(=O)c3ccccc3C2=O)c(C)n1 | -28.4
* CCN(CC)CCCC(C)NC(=S)N/N=C(\C)c1ccccn1 (configuration not stated) | 47.6
* Nc1ccn(C2CC(N)C(CO)O2)c(=O)n1 (configuration not stated) | 7.15
* CC(=O)Oc1c(Cl)cccc1-c1ccccc1 | 10.9
* CC(=O)c1ccc(C)cc1 | 6.1
* Cc1ccc(N2C(=O)c3cccc4c(N)c(S(=O)(=O)O)cc(c34)C2=O)cc1 | -18.2
* CC(=O)Nc1ncc(S(=O)(=O)c2ccc([N+](=O)[O-])cc2)s1 | -57.5
* O=C(O)c1ccc([N+](=O)[O-])cc1S(=O)(=O)O | -6.8
* CC(=O)NCNC(C)=O | 5.4
* O=S(=O)(OCCOS(=O)(=O)c1ccccc1)c1ccccc1 | 1.45
* O=C(O)CCCCCNC(=O)OCc1ccccc1 | -41.9
* CN=S(=O)(OCCCCCOS(=O)(=NC)c1ccc(C)cc1)c1ccc(C)cc1 (configuration not stated) | -33.8
* O=C(O)Cc1cccc2ccccc12 | -7.55
* CCOC(=O)c1c(C)[nH]c(C)c1C=O | -0.05

###

Each entry below carries its reported growth inhibition.
test_method_notes: NCI Yeast Anticancer Drug Screen. Data for the bub3 strain (AID 167)
study_conditions: S. cerevisiae bub3 mutant strain, at 50.0 µM, stronger effect = higher value
The panel holds about 79,000 compounds, 15% with a hit somewhere; the sample as a whole holds those more often.
measurement_label: growth inhibition (%)

• C=C(c1ccc(N(C)C)cc1)c1ccc(N(C)C)cc1 = 9.5
• FC(F)(F)c1cc(NC2=NCCN=C(Nc3cc(C(F)(F)F)cc(C(F)(F)F)c3)SS2)cc(C(F)(F)F)c1 = -22
• Cc1ccc(C(C)C)c(OCC(=O)O)c1 = -6.85
• CCOC(=O)C(=O)CC(=O)c1ccccc1 = 8.55
• O=S(=O)(c1ccc(NC(=S)NCc2cccnc2)cc1)N1CCCCC1 = 36.4
• CC(C)OCC(CCl)OC(=O)Nc1ccccc1 (stereo unspecified) = 35.1

###

Each entry below carries its reported growth inhibition.
test_method_notes: NCI Yeast Anticancer Drug Screen. Data for the sgs1 mgt1 strain (AID 161);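 note: 0% = growth of cultures given vehicle only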
study_conditions: S. cerevisiae sgs1 mgt1 strain, at 50.0 µM, stronger effect = higher value
About 79,000 compounds went through this panel and 15% of them were active in at least one assay; those are over-represented in the sample as a whole.
measurement_label: growth inhibition (%)

• CC(=O)[C@@]1(O)CC[C@H]2[C@@H]3CC[C@@H]4CC(=O)CC[C@]4(C)[C@H]3[C@@H](O)C[C@@]21C = -3
• NC(=S)N/N=C/c1ccc(Cl)cc1 = 41.5
• Nc1nc(N)nc(N2CCCCC2)n1 = -16.4
• C=CCc1cc(OC)c(O)c(OC)c1 = -14.2
• O=S(=O)(O)c1cccc2cccnc12 = 7
• CC(=O)Nc1ccc(C(=O)c2ccc(S(=O)(=O)Nc3ccccc3)cc2)cc1 = 5.55
• CCNc1ncnc2[nH]ncc12 = -5.6
• CCOC(=O)/C(O)=C(\C=N\C(=S)Nc1ccc(Cl)c(Cl)c1)C(=O)OCC = 38.5
• Cc1ccc(C)c(CCO)c1 = -30.5
• Cc1ccc(S(=O)(=O)NC(=O)NCCSSCCNC(=O)NS(=O)(=O)c2ccc(C)cc2)cc1 = 12.6
• CCCCN(C(=O)CC)c1ccccc1 = 9.5
• NC(=S)N/N=C/c1ccc(OC(=O)COc2ccccc2)cn1 = 14.3

###

Each entry below carries its reported growth inhibition.
test_method_notes: NCI Yeast Anticancer Drug Screen. Data for the mlh1 rad18 strain (AID 175)
study_conditions: S. cerevisiae mlh1 rad18 strain growth inhibition; at 50.0 µM; stronger effect = higher value
This is part of a sample that, as a whole, favours compounds with a hit. Of some 79,000 tested, about 15% had one in any assay.
measurement_label: growth inhibition (%)

- CN(C)CCOC(=O)Nc1ccc(Cc2ccc(NC(=O)OCCN(C)C)cc2)cc1: 8.3
- CCCC(=O)CC(=O)c1ccccc1: 4.4
- CC(C)C1CCC(C)C(O)C1 (centres undefined): 12.8
- CC(=O)NNC(=S)/N=C\C(C(=O)c1ccccc1)=C(/O)c1ccccc1: -19.2
- O=C1C=C(c2ccccc2)C(O)(c2ccccc2)C1 (centres undefined): 6.15
- CC(=O)C1C(=O)C(=O)N(c2cccc([N+](=O)[O-])c2)C1=O (centres undefined): -54.3
- CCOC(=N)CC(=O)Nc1cccc(C)c1Cl: -3.3
- Nc1cc(F)ccc1[N+](=O)[O-]: -5
- Cc1ccc(Cc2ccc(C)cc2)cc1: -8.2
- ON1CCCC1: 1.5
- CCCCCCCCCc1ccc(OC(C)=O)cc1: 98.4
- CCCOCc1cn[nH]n1: -2.35
- CC(C)c1ncc([N+](=O)[O-])n1C: 8.75
- O=[n+]1ccn([O-])c2ccccc21: 20.6
